Target Or Test System: furin, P09958;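 further: purified furin at 1:10 enzyme:substrate in 50 mM HEPES pH 7.5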
Sequence (P09958 whole entry): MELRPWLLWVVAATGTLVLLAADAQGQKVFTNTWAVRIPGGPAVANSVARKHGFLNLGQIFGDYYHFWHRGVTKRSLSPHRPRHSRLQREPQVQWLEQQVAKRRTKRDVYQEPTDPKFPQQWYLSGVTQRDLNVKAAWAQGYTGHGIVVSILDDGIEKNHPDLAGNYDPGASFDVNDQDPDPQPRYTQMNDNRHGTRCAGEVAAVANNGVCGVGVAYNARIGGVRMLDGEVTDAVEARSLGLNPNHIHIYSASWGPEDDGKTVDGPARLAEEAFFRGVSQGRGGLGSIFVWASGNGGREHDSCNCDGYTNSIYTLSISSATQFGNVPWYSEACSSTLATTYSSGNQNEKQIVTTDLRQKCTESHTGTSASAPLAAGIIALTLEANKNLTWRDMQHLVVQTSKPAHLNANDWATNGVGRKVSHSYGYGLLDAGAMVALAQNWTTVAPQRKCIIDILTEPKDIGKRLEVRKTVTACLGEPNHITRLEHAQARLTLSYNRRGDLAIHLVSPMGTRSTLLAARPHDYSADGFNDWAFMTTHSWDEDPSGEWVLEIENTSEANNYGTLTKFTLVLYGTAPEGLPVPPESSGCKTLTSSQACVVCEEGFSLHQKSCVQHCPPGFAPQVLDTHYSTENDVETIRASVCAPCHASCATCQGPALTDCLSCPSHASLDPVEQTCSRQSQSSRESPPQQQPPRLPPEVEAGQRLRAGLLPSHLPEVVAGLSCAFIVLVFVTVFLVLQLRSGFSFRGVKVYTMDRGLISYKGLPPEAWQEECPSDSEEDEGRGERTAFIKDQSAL
Assay Notes: furin cleavage Z-score vs untreated control; higher = more cleavage, active = 3.5 or more, inactive = 1 or less, 8 variable residues between constant flanks
Run Parameters: 15 min
This is one part of the list. The true hit rate is not given.
Experimental Readout: furin cleavage Z-score
Lab note: jot down the number only; don't add units.

CAVVCCSGSYAGNASASA [HC2056]    -0.697
CAKPARLIVFAGNASASA [HC1448]    -1.12

Input CARLRRGGDPAGNASASA [FS-2574] , output reported furin cleavage Z-score.
1.44

State, in one line, measured furin cleavage Z-score of CARLARNVKEAGNASASA [FS-2984]
6.29

Measured values drawn from the supplement of paper PMC3545927 for this set.
